Biological target: PKC theta kinase (Homo sapiens)
Test: PKC theta coupled-enzyme (NADH consumption) kinase assay
Type: biochemical
Settings: 18 nM PKC theta, 240 μM ATP, 30° C., initial rate at 340 nm; read-out: Ki PKC theta
MEASUREMENT TYPE: Ki

MOLECULE: CC(C)[C@@H](O)[C@@H]1CN(c2nc(-c3n[nH]c4ncccc34)c(F)cc2F)CCN1
TESTED SYSTEM: PKC theta kinase (Homo sapiens)
RECORDED RESULT: < 0.001 µM
//
MOLECULE: CC(CO)[C@@](C)(O)[C@@H]1CN(c2nc(-c3n[nH]c4ncccc34)c(F)cc2Cl)CCN1 (stereo partly shown)
TESTED SYSTEM: PKC theta kinase (Homo sapiens)
RECORDED RESULT: < 0.5 µM
//
MOLECULE: COCC(C)(O)C1CN(c2nc(-c3n[nH]c4ncccc34)c(F)cc2Cl)CCN1 (stereo not shown)
TESTED SYSTEM: PKC theta kinase (Homo sapiens)
RECORDED RESULT: < 0.05 µM

Data request: So what's the measured Ki for this one? "CC(C)[C@@](C)(O)[C@@H]1CN(c2nc(-c3n[nH]c4ncccc34)c(C#N)cc2F)CCN1"
Data returned: < 0.05 µM

###

Below, each entry is listed with its recorded pKi.
Target: PKC alpha kinase (Homo sapiens)
Test: PKC alpha coupled-enzyme (NADH consumption) kinase assay
Assay type: biochemical
Conditions: 4.5 nM PKC alpha, 130 μM ATP, 100 μM CaCl2, 30° C.; read-out: Ki PKC alpha
pKi: −log10 of the molar value.

Please review the following examples before continuing.
COMPOUND: CC(O)(C1CC1)C1CN(c2nc(-c3n[nH]c4ncccc34)c(F)cc2Cl)CCN1 (centres unmarked)
MEASUREMENT TYPE: pKi
RECORDED RESULT: > 6.30
--
COMPOUND: CC(C)C(N)[C@H]1CCN(c2nc(-c3n[nH]c4ncccc34)c(F)cc2F)C1 (some centres unmarked)
MEASUREMENT TYPE: pKi
RECORDED RESULT: > 6.30

Data request: So what's the measured pKi for this one? CC(C)C(N)[C@H]1CCN(c2nc(-c3n[nH]c4ncccc34)c(C#N)cc2F)C1 (single isomer, unassigned)
Data returned: < 5.90

Data request: So what's the measured pKi for this one? CC(C)C(O)C1CN(c2nc(-c3n[nH]c4ncccc34)c(F)cc2Cl)CCN1 (centres unmarked) [Compound 20]
Data returned: > 6.30

Data request: So what's the measured pKi for this one? CC(O)(CC(F)(F)F)C1CN(c2nc(-c3n[nH]c4ncccc34)c(F)cc2F)CCN1 (centres unmarked)
Data returned: > 6.30

###

Target: PKC theta kinase (Homo sapiens, UniProt Q04759)
Sequence (Q04759 whole entry): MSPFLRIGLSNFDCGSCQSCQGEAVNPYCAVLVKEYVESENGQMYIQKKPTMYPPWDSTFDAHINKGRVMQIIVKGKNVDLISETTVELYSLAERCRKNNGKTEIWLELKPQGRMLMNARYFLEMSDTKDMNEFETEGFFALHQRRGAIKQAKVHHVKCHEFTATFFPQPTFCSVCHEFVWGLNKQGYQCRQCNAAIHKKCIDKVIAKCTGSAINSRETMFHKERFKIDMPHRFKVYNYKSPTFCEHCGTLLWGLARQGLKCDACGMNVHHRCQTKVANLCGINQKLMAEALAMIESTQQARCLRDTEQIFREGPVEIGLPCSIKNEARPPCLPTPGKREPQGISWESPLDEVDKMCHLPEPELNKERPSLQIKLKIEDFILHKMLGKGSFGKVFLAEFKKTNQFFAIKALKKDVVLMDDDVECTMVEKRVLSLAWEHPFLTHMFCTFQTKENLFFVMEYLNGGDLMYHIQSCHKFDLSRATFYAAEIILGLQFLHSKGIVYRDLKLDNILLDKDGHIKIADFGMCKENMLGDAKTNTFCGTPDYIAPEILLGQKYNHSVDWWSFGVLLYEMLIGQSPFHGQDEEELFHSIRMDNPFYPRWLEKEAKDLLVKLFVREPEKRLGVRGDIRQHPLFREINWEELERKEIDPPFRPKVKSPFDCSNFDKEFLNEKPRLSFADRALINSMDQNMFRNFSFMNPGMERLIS
Test: PKC theta coupled-enzyme (NADH consumption) kinase assay
Type: biochemical
Settings: 18 nM PKC theta, 240 μM ATP, 30° C., initial rate at 340 nm; read-out: Ki PKC theta
pKi: −log10 of the molar value.
MEASUREMENT TYPE: pKi

COMPOUND: CC(C)C(N)[C@H]1CCN(c2nc(-c3n[nH]c4ncccc34)c(F)cc2F)C1 (some centres unmarked) [Compound 28]
MEASUREMENT TYPE: pKi
RECORDED RESULT: > 9.00

COMPOUND: CC(O)(CC(F)(F)F)C1CN(c2nc(-c3n[nH]c4ncccc34)c(F)cc2F)CCN1 (centres unmarked) [Compound 15]
MEASUREMENT TYPE: pKi
RECORDED RESULT: > 9.00

COMPOUND: CC[C@@H](O)[C@@H]1CN(c2nc(-c3n[nH]c4ncccc34)c(F)cc2F)CCN1 [Compound 8]
MEASUREMENT TYPE: pKi
RECORDED RESULT: > 9.00

COMPOUND: CC(C)(O)[C@@](C)(O)[C@@H]1CN(c2nc(-c3n[nH]c4ncccc34)c(F)cc2F)CCN1 [Compound 41]
MEASUREMENT TYPE: pKi
RECORDED RESULT: > 9.00

COMPOUND: CCC(O)C1CN(c2nc(-c3n[nH]c4ncccc34)c(F)cc2Cl)CCN1 (centres unmarked) [Compound 18]
MEASUREMENT TYPE: pKi
RECORDED RESULT: > 7.30

Data request: So what's the measured pKi for this one? CC(O)(C1CC1)C1CN(c2nc(-c3n[nH]c4ncccc34)c(F)cc2F)CCN1 (centres unmarked) [Compound 4]
Data returned: > 9.00

Data request: So what's the measured pKi for this one? CC(C)[C@](C)(O)[C@@H]1CN(c2nc(-c3n[nH]c4ncccc34)c(F)cc2Cl)CCN1 [Compound 38]
Data returned: > 7.30

Data request: So what's the measured pKi for this one? CC(C)(O)[C@@](C)(O)[C@@H]1CN(c2nc(-c3n[nH]c4ncccc34)c(F)cc2Cl)CCN1 [Compound 42]
Data returned: > 9.00

Reference source: patent US9067932B2
